This section presents compounds with their documented IC50 values.
# System Tested: SARM1 (ARM-SAM-TIR) (Homo sapiens (Human))
# Sequence (Q6SZW1 other isoform, or with tags, fused parts or gaps): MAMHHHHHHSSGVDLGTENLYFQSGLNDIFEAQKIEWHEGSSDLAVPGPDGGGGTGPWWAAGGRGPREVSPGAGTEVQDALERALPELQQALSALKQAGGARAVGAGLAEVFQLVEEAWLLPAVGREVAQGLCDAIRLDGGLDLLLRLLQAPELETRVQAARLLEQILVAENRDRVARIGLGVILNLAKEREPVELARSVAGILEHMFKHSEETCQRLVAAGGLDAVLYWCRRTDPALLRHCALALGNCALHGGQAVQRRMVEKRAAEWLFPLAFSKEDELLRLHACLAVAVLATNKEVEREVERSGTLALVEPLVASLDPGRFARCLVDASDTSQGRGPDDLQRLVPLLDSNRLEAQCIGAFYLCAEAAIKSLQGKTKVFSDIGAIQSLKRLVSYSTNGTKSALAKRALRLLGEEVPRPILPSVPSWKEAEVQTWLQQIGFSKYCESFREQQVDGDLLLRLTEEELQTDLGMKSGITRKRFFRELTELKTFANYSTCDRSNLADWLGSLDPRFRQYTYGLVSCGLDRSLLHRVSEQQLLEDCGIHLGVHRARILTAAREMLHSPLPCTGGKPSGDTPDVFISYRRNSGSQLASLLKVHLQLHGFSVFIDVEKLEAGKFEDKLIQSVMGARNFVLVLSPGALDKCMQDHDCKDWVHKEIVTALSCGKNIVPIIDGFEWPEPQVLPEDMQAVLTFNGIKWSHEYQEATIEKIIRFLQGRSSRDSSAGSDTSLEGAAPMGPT
# Assay Explanation: ARM-SAM-TIR SARM1 IC50 assay (NADase activity, NAD+ cleavage, RapidFire MS)
# Reported Conditions: ARM-SAM-TIR lysate 5 μg/mL, 2 h pre-incubation, 5 μM NAD+, 2 hr room temperature

Some solved cases for reference:
CC(C)(C)OC(=O)N(CC(=O)Nc1nnc(-c2ccncc2)[nH]1)c1ccccc1 [Example 70]
> 30 µM
O=C(Nc1cc(-c2ccncc2)n[nH]1)[C@H]1C[C@H](c2ccc(Cl)cc2)C1 [Example 181]
< 5 µM
[2H]C([2H])(C(=O)Nc1nnc(-c2ccncc2)[nH]1)C([2H])([2H])c1ccc(Cl)nc1 [Example 8]
< 5 µM
O=C(CCc1ccc(Cl)c(F)c1)Nc1nnc(-c2ccncc2)[nH]1 [Example 45]
< 5 µM
Cc1c(-c2ccncc2)n[nH]c1NC(=O)c1ccc(OCC2CC2)cc1 [Example 252]
5 to 15 µM
O=C(Nc1nnc(-c2ccncc2)[nH]1)NC1CCOc2cc(Cl)ncc21 (centres unmarked) [Example 226]
< 5 µM
Cc1c(-c2ccncc2)n[nH]c1NC(=O)CCc1nc2ccccc2s1 [Example 245]
5 to 15 µM

**Q:** Notebook: pull reported IC50 for SARM1 (ARM-SAM-TIR) (Homo sapiens (Human)), entry O=C(CCc1ccc(Cl)c(F)c1)Nc1nnc(-c2ccnnc2)[nH]1 [Example 13]
**A:** < 5 µM

* * *

# System Tested: SARM1 (ARM-SAM-TIR) (Homo sapiens (Human))
# Assay Explanation: ARM-SAM-TIR SARM1 IC50 assay (NADase activity, NAD+ cleavage, RapidFire MS)
# Reported Conditions: ARM-SAM-TIR lysate 5 μg/mL, 2 h pre-incubation, 5 μM NAD+, 2 hr room temperature
# Description: This Example describes an assay of ARM-SAM-TIR NADase activity and use of this assay to measure the efficacy of compounds of Formula I or Formula I′ to block SARM1 mediated NAD+ cleavage. […] The cultures were supplemented with 1 mM NR at time of transfection to minimize toxicity from ARM-SAM-TIR overexpression. […] Protein concentration was determined by the Bicinchoninic (BCA) method and used to normalize lysate concentrations. […]
Result Type: IC50

Some solved cases for reference:
O=C(CCc1ccc(Cl)cc1)Nc1[nH]nc(-c2ccncc2)c1C1CCC1
< 5 µM
O=C(C[C@H]1CCOc2nc(Cl)ccc21)Nc1nnc(-c2ccncc2)[nH]1
< 5 µM
O=C(CCc1ccc(Cl)cc1)Nc1ncc(-c2ccncc2)s1
5 to 15 µM
Cc1c(-c2ccncc2)n[nH]c1NC(=O)CS(=O)(=O)c1ccc(Cl)cc1
< 5 µM

**Q:** Fill in the blank: the reported IC50 of `CNC(=O)Cc1c(-c2ccncc2)n[nH]c1NC(=O)CCc1ccc(Cl)nc1` is ____.
**A:** < 5 µM

* * *

This section presents compounds with their documented pIC50 values.
# System Tested: SARM1 (ARM-SAM-TIR) (Homo sapiens (Human))
# Assay Explanation: ARM-SAM-TIR SARM1 IC50 assay (NADase activity, NAD+ cleavage, RapidFire MS)
# Reported Conditions: ARM-SAM-TIR lysate 5 μg/mL, 2 h pre-incubation, 5 μM NAD+, 2 hr room temperature
pIC50: −log10 of the molar value.

O=C(CN1C(=O)COc2ccccc21)Nc1nnc(-c2ccncc2)[nH]1
4.52 to 4.82
O=C(Nc1nnc(-c2ccncc2)[nH]1)NC1CCOc2nc(Cl)ccc21 (stereo not drawn)
4.82 to 5.30
O=C(CCc1ccc(C(F)(F)F)cc1)Nc1[nH]nc(-c2ccnnc2)c1Br
> 5.30
N#Cc1ccc(CC(=O)Nc2nnc(-c3ccncc3)[nH]2)cc1
4.82 to 5.30
N#Cc1cnccc1-c1nnc(NC(=O)CCc2ccc(Cl)cc2)[nH]1
> 5.30

**Q:** Notebook: pull reported pIC50 for SARM1 (ARM-SAM-TIR) (Homo sapiens (Human)), entry `O=C(C[C@H]1CCCc2ccccc21)Nc1nnc(-c2ccncc2)[nH]1`
**A:** > 5.30
